- SYSTEM NAME: T1, P-cadherin-ECD1-3-Fc protein (human P-cadherin-Fc) (human, UniProt P22223 108-440)
- T1 construct: Construct was expressed with signal peptide and pro-peptide (PACE co-transfected to process the propeptide); not shown: hinge and CH2 and CH3 domains of human IgG1
- T1 sequence (P22223 108-440): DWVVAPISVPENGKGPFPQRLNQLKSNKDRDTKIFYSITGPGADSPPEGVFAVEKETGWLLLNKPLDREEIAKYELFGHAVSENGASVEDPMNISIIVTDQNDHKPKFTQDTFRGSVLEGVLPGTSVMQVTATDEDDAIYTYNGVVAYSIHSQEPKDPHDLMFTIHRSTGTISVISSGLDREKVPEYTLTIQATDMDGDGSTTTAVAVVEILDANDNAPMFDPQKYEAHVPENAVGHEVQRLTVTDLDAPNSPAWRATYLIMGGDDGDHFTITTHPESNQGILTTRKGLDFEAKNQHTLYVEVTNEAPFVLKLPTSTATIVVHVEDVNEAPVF
- TEST DETAILS: phage scFv ELISA, coated P-cadherin-ECD1-3-Fc
QUANTITY NAME: Human P-cadherin-Fc binding (OD450)
API: value field is a number in OD450; no unit string.

**Query** Look up Human P-cadherin-Fc binding (OD450): anti-P-cadherin scFv 153 alanine-mutant L1.12-Ala (scFv, V domains shown, scFv on phage) VH: EVQLVQSGAEVKKPGASVKVSCKASGYTFTSYGISWVRQAPGQGLEWMGWISAYNGNTNYAQKLQGRVTMTTDTSTSTAYMELRSLRSDDTAVYYCATIDTANAFGIWGQGTMVTVSS VL: QSVLTQPPSVSAAPGQKVTISCSGSSSNIGNNYASWYQQLPGTAPKLLIYDNNKRPSGIPDRFSGSKSGTSATLGITGLQTGDEADYYCGTWDSSLSGVVFGGGTKLTVL
**Result** 2.29

**Query** Field request: Human P-cadherin-Fc binding (OD450) | item: anti-P-cadherin scFv 153 alanine-mutant L3.2-Ala (scFv, V domains shown, scFv on phage) VH: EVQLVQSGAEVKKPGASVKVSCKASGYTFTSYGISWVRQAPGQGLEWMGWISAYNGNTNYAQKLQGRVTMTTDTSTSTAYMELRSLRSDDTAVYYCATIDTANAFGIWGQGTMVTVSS VL: QSVLTQPPSVSAAPGQKVTISCSGSSSNIGNNYVSWYQQLPGTAPKLLIYDNNKRPSGIPDRFSGSKSGTSATLGITGLQTGDEADYYCGAWDSSLSGVVFGGGTKLTVL
**Result** 0.81
